Test system: biotinyl-Phe-oxazolone
Assay: self-aminoacylation, catalytic enhancement (BFO) (fold over background); higher = more active; k-Seq, kA / k0A0; sequences stand for … in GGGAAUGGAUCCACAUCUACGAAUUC…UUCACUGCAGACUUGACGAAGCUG
Variants at the floor of the assay were thinned out.

sequenceCode | self-aminoacylation
CUACUUCAAACAAUCGGUAUG [Fam1A.1 aminoacylation ribozyme variant] | 21.5
AUUACCCUGCUCAGCGAGUGA [Fam2.1 aminoacylation ribozyme variant] | 18.5
AUUCACCUAGGUCCUAGGGUG [Fam2.2 aminoacylation ribozyme variant] | 4.72
AAGUUUGCUAAUAUUCGCAAU [Fam3.1 aminoacylation ribozyme variant] | 1.32
AUGCACCUAGGGCAUCGGGUG [Fam2.2 aminoacylation ribozyme variant] | 30.6
CUACUUCACACAAUCGGUCUA [Fam1A.1 aminoacylation ribozyme variant] | 0.822
AUUCCCCGAGGUCAUCGGGUG [Fam2.2 aminoacylation ribozyme variant] | 188
AUAACCCUGGCCAUCGAGUGA [Fam2.1 aminoacylation ribozyme variant] | 11.4
UUACAUCAAACAAUCGGUCUG [Fam1A.1 aminoacylation ribozyme variant] | 3.42
AUUCACCUAGGCCAUCGGUUG [Fam2.2 aminoacylation ribozyme variant] | 8.73
AUGACCCUGGUCAUCAAGUGA [Fam2.1 aminoacylation ribozyme variant] | 2.74
AUUCACAUAAGUCAUCGGGUG [Fam2.2 aminoacylation ribozyme variant] | 95.4
CUACUCCAAAAAAUCGGUCUG [Fam1A.1 aminoacylation ribozyme variant] | 1.33
CUACUUCGAACAAUCGUUCUG [Fam1A.1 aminoacylation ribozyme variant] | 0.268
CCUCAAUUCAAGCAAUCGGUC [Fam1B.1 aminoacylation ribozyme variant] | 6.19
CUACUUAAAACAAUCGGGCUG [Fam1A.1 aminoacylation ribozyme variant] | 0.623
UUUACCCGGGUCAUCGAGUGA [Fam2.1 aminoacylation ribozyme variant] | 43.1
GUAUUUCAAACAAUCGGUCUG [Fam1A.1 aminoacylation ribozyme variant] | 2.64
AUUACCCUGGUCCUCAAGUGA [Fam2.1 aminoacylation ribozyme variant] | 7.45
CAGUUUGCUAAUAGUUGCAAG [Fam3.1 aminoacylation ribozyme variant] | 1.55
CCUCACUUCAAGCAAUCUGUC [Fam1B.1 aminoacylation ribozyme variant] | 1.03
AUUACCCUGGUCAUCUUGUGA [Fam2.1 aminoacylation ribozyme variant] | 22.6
CCACACUUCAAGCAUUCGUUC [Fam1B.1 aminoacylation ribozyme variant] | 0.811
CCACACUUCAAGCAUUCGGCC [Fam1B.1 aminoacylation ribozyme variant] | 0.749
AUACUUCAAACAAUUGGUCUG [Fam1A.1 aminoacylation ribozyme variant] | 1.16
GAGUUUGCUAAUAGGCGCAAG [Fam3.1 aminoacylation ribozyme variant] | 1.4
CCACACAUCUAGCAAUCGGUC [Fam1B.1 aminoacylation ribozyme variant] | 0.911
CUUCACUUAGGUCAUCGGGUG [Fam2.2 aminoacylation ribozyme variant] | 23.4
AAGUUUGCUAAUUGUCUCAAG [Fam3.1 aminoacylation ribozyme variant] | 1.05
AAGUCUGCUCAUAGUCGCAAG [Fam3.1 aminoacylation ribozyme variant] | 8.38
AUACACCUAGGUUAUCGGGUG [Fam2.2 aminoacylation ribozyme variant] | 19.1
CCACAUUUGAAGCAAUCGGUC [Fam1B.1 aminoacylation ribozyme variant] | 1.09
AAUCGCCUAGGUCAUCGGGUG [Fam2.2 aminoacylation ribozyme variant] | 72.9
AAAUUUGCUUAUAGUCGCAAG [Fam3.1 aminoacylation ribozyme variant] | 2.37
CAACACUUCAAGCUAUCGGUC [Fam1B.1 aminoacylation ribozyme variant] | 0.964
